Target: AAK1 (amino acids T27-A365) (Homo sapiens, UniProt Q2M2I8)
Construct: against AAK1 (amino acids T27-A365); 6His (N, cleaved yes)
Sequence (Q2M2I8 27-365): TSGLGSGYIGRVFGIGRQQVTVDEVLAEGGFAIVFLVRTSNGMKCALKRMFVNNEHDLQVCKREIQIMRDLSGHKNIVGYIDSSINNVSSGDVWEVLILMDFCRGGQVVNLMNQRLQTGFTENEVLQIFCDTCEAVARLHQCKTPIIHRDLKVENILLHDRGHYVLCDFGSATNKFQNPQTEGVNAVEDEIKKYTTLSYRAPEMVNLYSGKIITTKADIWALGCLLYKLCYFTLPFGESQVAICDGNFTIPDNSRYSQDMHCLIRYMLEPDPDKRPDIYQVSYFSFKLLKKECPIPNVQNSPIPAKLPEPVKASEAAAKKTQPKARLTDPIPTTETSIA
Assay: AAK1 pSENs assay
Assay type: biochemical
Details: class symbols; read-out: AAK1 pSENs: EIC50
metric: IC50

| compound | tested_on | IC50 |
| --- | --- | --- |
| C[C@@]1(OC(=O)N[C@@H]2CCN(c3ccn4ncc(-c5cccnc5OC5CC5)c4n3)C2)CCNC1 | AAK1 (amino acids T27-A365) (Homo sapiens, UniProt Q2M2I8) | 151 to 500 nM |

For record `[2H]C([2H])([2H])N1C[C@@H](OC(=O)N2CCN(c3nc4c(-c5cccnc5OC5CC5)cnn4cc3F)CC2)CC1=O` the listed IC50 is 1 to 50 nM

For record COc1ncccc1-c1cnn2ccc(N3CCN(C(=O)OC4(C)CCNC4)CC3)nc12 (centres unmarked) the listed IC50 is 1 to 50 nM

For record `CC1(OC(=O)N2CCN(c3ccn4ncc(-c5cccnc5OC5CCC5)c4n3)CC2)COC1` the listed IC50 is 1 to 50 nM

For record `CN1C[C@@H](OC(=O)N2CCN(c3nc4c(-c5cccnc5OC5CC5)cnn4cc3O)CC2)CC1=O` the listed IC50 is > 1500 nM

For record C#CC1(OC(=O)N2CCN(c3ccn4ncc(-c5cccnc5OC5CC5)c4n3)CC2)CCNC1 (centres unmarked) the listed IC50 is 1 to 50 nM

For record `CC(C)Nc1ncccc1-c1cnn2ccc(N3CCN(C(=O)O[C@@H]4CNC(=O)C4)CC3)nc12` the listed IC50 is > 1500 nM

For record `CN1C[C@@H](OC(=O)N2CCN(c3ccn4ncc(-c5cccnc5O)c4n3)CC2)CC1=O` the listed IC50 is 151 to 500 nM

For record `CN1C[C@@H](OC(=O)N2CCN(c3nc4c(-c5cccnc5OC5CCCC5)cnn4cc3F)CC2)CC1=O` the listed IC50 is 51 to 150 nM

For record `CC(C)N1C[C@@H](OC(=O)N2CCN(c3ccn4ncc(-c5cccnc5OC5CC5)c4n3)CC2)CC1=O` the listed IC50 is 51 to 150 nM

For record `C#C[C@@]1(OC(=O)N2CCN(c3ccn4ncc(-c5cccnc5OC5CC5)c4n3)CC2)CCNC1` the listed IC50 is 1 to 50 nM

For record `O=C1C[C@H](OC(=O)N[C@@H]2CCN(c3ccn4ncc(-c5cccnc5OC5CC5)c4n3)C2)CN1` the listed IC50 is 501 to 1500 nM

For record `O=C(O[C@H]1CC(=O)N(C2CCNCC2)C1)N1CCN(c2ccn3ncc(-c4cccnc4OC4CC4)c3n2)CC1` the listed IC50 is 1 to 50 nM

For record `[2H]C([2H])([2H])N1C[C@@H](OC(=O)N2CCN(c3nc4c(-c5cc(OC)cnc5OC5CC5)cnn4cc3F)CC2)CC1=O` the listed IC50 is 1 to 50 nM

----------
Target: AAK1 (Homo sapiens)
Sequence (Q2M2I8 whole entry): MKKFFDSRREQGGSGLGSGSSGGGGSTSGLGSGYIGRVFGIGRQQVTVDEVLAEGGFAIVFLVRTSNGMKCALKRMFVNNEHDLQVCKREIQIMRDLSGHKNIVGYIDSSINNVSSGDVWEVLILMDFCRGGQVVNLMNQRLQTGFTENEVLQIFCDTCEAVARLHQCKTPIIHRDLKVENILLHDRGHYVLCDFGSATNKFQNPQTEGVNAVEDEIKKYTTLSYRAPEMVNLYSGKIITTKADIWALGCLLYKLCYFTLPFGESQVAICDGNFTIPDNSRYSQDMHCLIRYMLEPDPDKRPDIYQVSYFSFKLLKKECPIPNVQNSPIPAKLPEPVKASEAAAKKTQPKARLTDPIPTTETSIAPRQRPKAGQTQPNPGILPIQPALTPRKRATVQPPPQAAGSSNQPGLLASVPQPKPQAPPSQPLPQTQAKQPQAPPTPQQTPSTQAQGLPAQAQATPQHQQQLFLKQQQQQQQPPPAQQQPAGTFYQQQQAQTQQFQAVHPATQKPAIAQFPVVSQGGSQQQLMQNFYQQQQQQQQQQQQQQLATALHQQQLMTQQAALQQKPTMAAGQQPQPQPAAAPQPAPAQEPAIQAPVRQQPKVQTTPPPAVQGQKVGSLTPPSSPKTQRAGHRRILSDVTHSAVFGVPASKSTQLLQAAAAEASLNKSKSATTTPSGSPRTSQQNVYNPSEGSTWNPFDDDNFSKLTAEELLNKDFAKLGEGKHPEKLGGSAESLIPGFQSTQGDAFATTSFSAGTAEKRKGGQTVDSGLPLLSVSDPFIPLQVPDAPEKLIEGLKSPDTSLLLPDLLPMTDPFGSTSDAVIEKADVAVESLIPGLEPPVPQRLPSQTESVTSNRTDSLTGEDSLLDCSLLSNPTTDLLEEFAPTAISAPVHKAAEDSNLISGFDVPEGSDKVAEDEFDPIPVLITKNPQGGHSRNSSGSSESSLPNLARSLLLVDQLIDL
Assay: pAP2M1 cell-based assay (in-cell Western)
Details: Hela cells co-transfected with AP2M1 and AAK1, 3 hr treatment; class symbols; read-out: AAK1 In-cell Western: IC50
Listed below: IC50 values for each entry.

| compound | tested_on | IC50 |
| --- | --- | --- |
| COc1ncccc1-c1cnn2ccc(N3CCN(C(=O)OC4(C)CCNC4)CC3)nc12 (centres unmarked) [Compound I-8] | AAK1 (Homo sapiens) | 1 to 50 nM |
| O=C1C[C@H](OC(=O)N2CCN(c3ccn4ncc(-c5cccnc5OC5CC5)c4n3)CC2)CN1 [Compound I-11] | AAK1 (Homo sapiens) | 151 to 500 nM |

Item CC1(OC(=O)N2CCN(c3ccn4ncc(-c5cccnc5OCC5CCC5)c4n3)CC2)COC1 [Compound I-19] was tested on AAK1 (Homo sapiens); the reported IC50 is > 1500 nM

Item CN1C[C@H](OC(=O)N2CCN(c3ccn4ncc(-c5cccnc5OC5CC5)c4n3)CC2)CC1=O [Compound I-94] was tested on AAK1 (Homo sapiens); the reported IC50 is 501 to 1500 nM

Item CN1C[C@@H](OC(=O)N2CCN(c3ccn4ncc(-c5cc(F)cnc5OC5CC5)c4n3)CC2)CC1=O [Compound I-86] was tested on AAK1 (Homo sapiens); the reported IC50 is 151 to 500 nM
